Source of measurements: patent US20220315554A1

Assay Procedure: Plasma stability assay, mouse plasma
Format: in vitro ADME
Condition Label: 4 h incubation, 37° C., read-out: % intact compound remaining after incubation, Mouse plasma
Numbered stars: 1 amine (or outer) side, 2 acyl side, 3 side chain; on linkers, the order of the positions; unused ones are H or OH. Bridge positions count the residues as written; N and C are the ends. Square brackets hold non-standard residues; d marks the D form. Peptide text beside a SMILES is read from it. * marks the point of attachment. ξ: configuration not given here. X2 = O=C(O)CN1CCN(CC(=O)O)CCN(CC(=O)NCCCOCCOCCOCCCN*)CCN(CC(=O)O)CC1; mXylylene = c1cc(C[*:1])cc(C[*:2])c1; Aic = NC1(C(=O)O)Cc2ccccc2C1; Suc = O=C(CCC(=O)[*:2])[*:1]; 4Amb = NCc1ccc(C(=O)O)cc1; Nle = CCCC[C@H](N)C(=O)O; ξM = CSCCC(N)C(=O)O
Measured Parameter: remaining at 4 h, 9.8 µM (%)
# value in %; strip the unit string

Challenge: For CCCC[C@H](NC(=O)CCC(=O)NCCCOCCOCCOCCCNC(=O)CN1CCN(CC(=O)O)CCN(CC(=O)O)CCN(CC(=O)O)CC1)C(=O)N[C@H]1CSCc2cccc(c2)CSC[C@@H](C(=O)N[C@@H](CC(=O)O)C(=O)NCc2ccc(C(=O)N[C@@H](CCCNC(=N)N)C(N)=O)cc2)NC(=O)[C@H](Cc2ccccc2)NC(=O)[C@H](CCC(=O)O)NC(=O)[C@H]([C@@H](C)O)NC(=O)[C@@H]2CCCN2C(=O)[C@@H]2CCCN2C1=O [3BP-3321] ({X2-Suc}-[Nle]CPPTEFCD[4Amb]R-NH2; linker 2-8 via mXylylene) , what is its reported remaining at 4 h, 9.8 µM?
Response given: 94

Challenge: Entry CSCC[C@H](NC(C)=O)C(=O)N[C@H]1CSCc2cccc(c2)CSC[C@@H](C(=O)N[C@@H](CC(=O)O)C(=O)N[C@@H](Cc2c[nH]cn2)C(=O)N2Cc3ccccc3C[C@H]2C(=O)N[C@@H](CCCNC(=N)N)C(=O)N[C@@H](CC(=O)O)C(N)=O)NC(=O)[C@H](Cc2ccccc2)NC(=O)[C@H](CCC(=O)O)NC(=O)[C@H]2NC(=O)[C@@H]3C(CCN3C(=O)[C@@H]3CCCN3C1=O)[C@H]2O : reported remaining at 4 h, 9.8 µM = ?
Response given: 100

Challenge: Return reported remaining at 4 h, 9.8 µM; argument: CSCCC(N)C(=O)N[C@H]1CSCc2cccc(c2)CSC[C@@H](C(=O)N[C@@H](CC(=O)O)C(=O)N[C@@H](Cc2c[nH]cn2)C(=O)N[C@@H](Cc2ccccc2)C(=O)N[C@@H](CCCNC(=N)N)C(=O)N[C@@H](CC(=O)O)C(N)=O)NC(=O)[C@H](Cc2ccccc2)NC(=O)[C@H](CCC(=O)O)NC(=O)[C@H]([C@@H](C)O)NC(=O)[C@@H]2CCCN2C(=O)[C@@H]2CCCN2C1=O (some centres unmarked) [3BP-2976] (H-[ξM]CPPTEFCDHFRD-NH2; linker 2-8 via mXylylene)
Response given: 93

Challenge: Please look up its remaining at 4 h, 9.8 µM: CSCC[C@H](NC(C)=O)C(=O)N[C@H]1CSCc2cccc(c2)CSC[C@@H](C(=O)N[C@@H](CC(=O)O)C(=O)N[C@@H](Cc2c[nH]cn2)C(=O)NC2(C(=O)N[C@@H](CCCNC(=N)N)C(=O)N[C@@H](CC(=O)O)C(N)=O)Cc3ccccc3C2)NC(=O)[C@H](Cc2ccccc2)NC(=O)[C@H](CCC(=O)O)NC(=O)[C@H]([C@@H](C)O)NC(=O)[C@@H]2CCCN2C(=O)[C@@H]2CCCN2C1=O [3BP-3190] (Ac-MCPPTEFCDH[Aic]RD-NH2; linker 2-8 via mXylylene)
Response given: 88

Challenge: Would you mind telling me what remaining at 4 h, 9.8 µM value was observed for CSCC[C@H](NC(C)=O)C(=O)N[C@H]1CSCc2cccc(c2)CSC[C@@H](C(=O)N[C@@H](CC(=O)O)C(=O)N[C@H](Cc2c[nH]cn2)C(=O)N[C@@H](Cc2ccccc2)C(=O)N[C@@H](CCCNC(=N)N)C(=O)N[C@@H](CC(=O)O)C(N)=O)NC(=O)[C@H](Cc2ccccc2)NC(=O)[C@H](CCC(=O)O)NC(=O)[C@H]([C@@H](C)O)NC(=O)[C@@H]2CCCN2C(=O)[C@@H]2CCCN2C1=O [3BP-3210] (Ac-MCPPTEFCD[dH]FRD-NH2; linker 2-8 via mXylylene) ?
Response given: 100

----------
Test System: FAP-expressing human WI-38 fibroblasts (Homo sapiens)
Construct: FAP-expressing human WI-38 fibroblasts (ECACC) were cultured in EMEM; host or cells: WI-38 human fibroblasts
Sequence (Q12884 whole entry): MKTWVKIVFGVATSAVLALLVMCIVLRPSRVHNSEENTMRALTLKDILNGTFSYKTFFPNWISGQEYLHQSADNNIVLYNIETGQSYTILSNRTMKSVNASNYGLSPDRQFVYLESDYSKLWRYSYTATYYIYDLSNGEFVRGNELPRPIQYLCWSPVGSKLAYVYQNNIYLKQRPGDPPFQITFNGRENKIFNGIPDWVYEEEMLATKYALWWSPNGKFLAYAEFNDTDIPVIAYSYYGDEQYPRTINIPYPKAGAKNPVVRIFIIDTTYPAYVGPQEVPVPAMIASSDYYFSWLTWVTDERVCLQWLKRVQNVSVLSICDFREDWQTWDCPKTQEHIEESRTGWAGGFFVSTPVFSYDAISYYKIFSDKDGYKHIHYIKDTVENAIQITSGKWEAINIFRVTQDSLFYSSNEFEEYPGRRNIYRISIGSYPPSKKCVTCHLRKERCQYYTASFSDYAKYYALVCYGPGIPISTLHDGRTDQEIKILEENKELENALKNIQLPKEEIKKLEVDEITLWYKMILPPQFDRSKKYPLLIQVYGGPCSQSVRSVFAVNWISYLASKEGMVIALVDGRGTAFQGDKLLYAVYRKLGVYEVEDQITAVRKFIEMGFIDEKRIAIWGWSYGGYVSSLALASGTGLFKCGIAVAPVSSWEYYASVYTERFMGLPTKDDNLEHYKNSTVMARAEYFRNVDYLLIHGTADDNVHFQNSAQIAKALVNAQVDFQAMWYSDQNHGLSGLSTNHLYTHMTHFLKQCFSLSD
Assay Procedure: Competitive FACS binding assay
Condition Label: pIC50 Category (FACS), competition with 3 nM Cy5-labeled compound, 4° C., 1 hour
Numbered stars: 1 amine (or outer) side, 2 acyl side, 3 side chain; on linkers, the order of the positions; unused ones are H or OH. Bridge positions count the residues as written; N and C are the ends. Peptide text beside a SMILES is read from it. * marks the point of attachment. X5 = O=C(O)CN1CCN(CC(=O)O)CCN(CC(=O)NCCSCc2cc(CSC[C@@H](CO)N[*:2])cc(C[*:1])c2)CCN(CC(=O)O)CC1; Hexanoyl = CCCCCC(=O)*
Measured Parameter: IC50

Challenge: Suppose we examine the molecule CCCCCC(=O)N[C@H]1CSCc2cc(CSCCNC(=O)COCCOCCNC(=O)C(CNCCN)CNCCN)cc(c2)CSC[C@@H](C(=O)O)NC(=O)[C@H](Cc2ccccc2)NC(=O)[C@H](CCC(N)=O)NC(=O)[C@H]([C@@H](C)O)NC(=O)[C@@H]2CCCN2C(=O)[C@@H]2CCCN2C1=O [3BP-4088] ; what IC50 value has been reported?
Response given: < 0.01 µM

Challenge: Which measured IC50 value corresponds to CCCCCC(=O)N[C@H]1CSCc2cc(CSCCNC(=O)CN3CCN4CCN5CCN(CC3)CC(=O)[O][In]([O]C(=O)C4)[O]C(=O)C5)cc(c2)CSC[C@@H](C(=O)N(C)CC(=O)O)NC(=O)[C@H](Cc2ccccc2)NC(=O)[C@H](CCC(N)=O)NC(=O)[C@H]([C@@H](C)O)NC(=O)[C@@H]2CCCN2C(=O)[C@@H]2CCCN2C1=O [3BP-3715] ?
Response given: < 0.01 µM

Challenge: Need IC50, item CCCCCC(=O)N[C@H]1CSCc2cc(CSCCNC(=O)CCC(=O)NCCCOCCOCCOCCCNC(=O)C(CNCCN)CNCCN)cc(c2)CSC[C@@H](C(=O)O)NC(=O)[C@H](Cc2ccccc2)NC(=O)[C@H](CCC(N)=O)NC(=O)[C@H]([C@@H](C)O)NC(=O)[C@@H]2CCCN2C(=O)[C@@H]2CCCN2C1=O [3BP-4299]
Response given: < 0.01 µM

Challenge: May I ask what IC50 has been recorded for CCCCCC(=O)N[C@H]1CSCc2cc(CSCCNC(=O)CCc3ccc(O)c(CN(CCN(CC(=O)O)Cc4cc(CCC(=O)O)ccc4O)CC(=O)O)c3)cc(c2)CSC[C@@H](C(=O)O)NC(=O)[C@H](Cc2ccccc2)NC(=O)[C@H](CCC(N)=O)NC(=O)[C@H]([C@@H](C)O)NC(=O)[C@@H]2CCCN2C(=O)[C@@H]2CCCN2C1=O [3BP-4381] ?
Response given: 0.01 to 0.0794 µM

Challenge: Quick one: IC50 of CCCCCC(=O)N[C@H]1CSCc2cc(CSCCNC(=O)CN3CCN(CC(=O)O)CCN(CC(=O)O)CCN(CC(=O)O)CC3)cc(c2)CSC[C@@H](CO)NC(=O)[C@H](Cc2ccccc2)NC(=O)[C@H](CCC(N)=O)NC(=O)[C@H]([C@@H](C)O)NC(=O)[C@@H]2CCCN2C(=O)[C@@H]2CCCN2C1=O [3BP-3767] (Hexanoyl-CPPTQF; linker 1-C via X5) ?
Response given: < 0.01 µM

----------
Kindly state IC50 for each of the entries shown.
Test System: FAP-expressing human WI-38 fibroblasts (Homo sapiens)
Construct: FAP-expressing human WI-38 fibroblasts (ECACC) were cultured in EMEM; host or cells: WI-38 human fibroblasts
Assay Procedure: Competitive FACS binding assay
Condition Label: pIC50 Category (FACS), competition with 3 nM Cy5-labeled compound, WI-38 fibroblasts, 4° C., 1 hour
Protocol: Cells were analyzed in an Attune NxT flow cytometer. […]
Numbered stars: 1 amine (or outer) side, 2 acyl side, 3 side chain; on linkers, the order of the positions; unused ones are H or OH. Bridge positions count the residues as written; N and C are the ends. Square brackets hold non-standard residues; d marks the D form. Peptide text beside a SMILES is read from it. * marks the point of attachment. mXylylene = c1cc(C[*:1])cc(C[*:2])c1; Hexanoyl = CCCCCC(=O)*

Challenge: IC50 lookup needed for CCCCCC(=O)N[C@H]1CSCc2cccc(c2)CSC[C@@H](C(=O)N[C@@H](CC(=O)O)C(=O)N[C@@H](Cc2c[nH]cn2)C(=O)N[C@@H](Cc2ccccc2)C(=O)N[C@@H](CCCNC(=N)N)C(=O)N[C@@H](CC(=O)O)C(N)=O)NC(=O)[C@H](Cc2ccccc2)NC(=O)[C@H](CCC(=O)O)NC(=O)[C@H]([C@@H](C)O)NC(=O)[C@@H]2CCCN2C(=O)[C@@H]2CCCN2C1=O [3BP-2974] (Hexanoyl-CPPTEFCDHFRD-NH2; linker 1-7 via mXylylene) , thanks.
Response given: < 10 nM

Challenge: Data request, read-out IC50, for CCCCCC(=O)N[C@H]1CSCc2cccc(c2)CSC[C@@H](C(=O)O)NC(=O)[C@H](Cc2ccccc2)NC(=O)[C@H](CCC(=O)O)NC(=O)[C@H]([C@@H](C)O)NC(=O)[C@@H]2CCCN2C(=O)[C@@H]2CCCN2C1=O [3BP-3370] (Hexanoyl-CPPTEFC-OH; linker 1-7 via mXylylene)
Response given: 10 to 79.4 nM

Challenge: Reported IC50 for CSCC[C@H](NC(C)=O)C(=O)N[C@H]1CSCc2cccc(c2)CSC[C@@H](C(=O)N[C@@H](CC(=O)O)C(=O)N[C@H](Cc2c[nH]cn2)C(=O)N[C@@H](Cc2ccccc2)C(=O)N[C@@H](CCCNC(=N)N)C(=O)N[C@@H](CC(=O)O)C(N)=O)NC(=O)[C@H](Cc2ccccc2)NC(=O)[C@H](CCC(=O)O)NC(=O)[C@H]([C@@H](C)O)NC(=O)[C@@H]2CCCN2C(=O)[C@@H]2CCCN2C1=O [3BP-3210] (Ac-MCPPTEFCD[dH]FRD-NH2; linker 2-8 via mXylylene) : what is it?
Response given: < 10 nM
